Source of measurements: PubChem BioAssay (NCATS)

# protocol.description: Primary qHTS for inhibitors of nuclear receptor binding SET domain protein 2 (NSD2) in an isogenic RCH-ACV NSD2 p.E1099K mutant (9B) (AID 1645876); further: nearly all actives have a fitted effect of over 70% in size
# measurement.context: RCH-ACV (leukaemia line) NSD2 E1099K (9B) viability, CellTiter-Glo, 72 h; series mostly up to 44.9 µM
Results filed as inconclusive are left out. The source made the active and inactive calls. The call rests on the fitted dose curve; in most records, active means well fitted inhibition curve with a large enough effect; inconclusive means small, poorly fitted or top-dose-only effect; inactive means flat fitted curve, though single readings scatter.
Permitted responses: active, inactive

Consider the worked cases shown below.
1) c1ccc(CNCc2ccc(CN3CCCNCCNCCCNCC3)cc2)nc1
inactive
2) NC(=O)c1cnc2[nH]ccc2c1NC1C2CC3C[C@H]1CC(O)(C3)C2 (stereo not given in full)
active
3) O=C(NCc1ccccc1)[C@H](Cc1ccccc1)NC(=O)[C@H]1O[C@@H]1C(=O)NCCc1ccc(O)cc1
active
4) O=c1ncccn1[C@@H]1O[C@H](CO)[C@@H](O)[C@H]1O
inactive
5) CNC(=O)Cn1cc(-c2ccc3c(c2)C(F)CC32NC(=O)N(CC(=O)N(Cc3ccc(F)cc3)C(C)C(F)(F)F)C2=O)cn1 (stereo not given)
active
6) O=C(O)C[C@H]1CCc2c1[nH]c1ccc(OCc3ccc(C4CCCC4)c(C(F)(F)F)c3)cc21
inactive
7) Clc1cccc(-c2ccc(-c3nnc(CCCc4ccc5cccnc5n4)o3)cc2)c1
inactive
8) O=C(O)c1ccccc1-c1ccc(/C=c2\sc3nc4cc(Br)cnc4n3c2=O)o1
inactive
9) C[C@H](NC(=O)/C(C#N)=C/c1cccc(Br)n1)c1ccccc1
active

Now for another entry.
Exercise: Which outcome was entered for the compound C=CCN1C[C@H](C(=O)N(CCCN(C)C)C(=O)NCC)CC2c3cccc4[nH]cc(c34)C[C@H]21 (stereo not given in full) in this test?
Solution: inactive

###

# protocol.description: qHTS Assay for Lipid Storage Modulators (AID 1519); further: on the % scale 0 is the no-effect control and ±100 the full control effect
# measurement.context: Drosophila S3 cells, BODIPY lipid droplet/cell ratio, laser cytometry; at 57.5 µM (top of the series); cells loaded with oleic acid
Inconclusive results are not listed. Calls of active or inactive are those of the source. Calls follow the shape of the full dose curve.
This section presents molecules with their documented activity change, negative = inhibition values.

Past entries and their recorded results:
1. Cc1noc(C)c1-c1cc(Nc2ccc(F)cc2)ncn1
8.49% (inactive)
2. COc1ncc2nc(-c3cc(F)cc(F)c3)c(=O)n(C)c2n1
5.28% (inactive)
3. Cc1nc2cncnc2n(Cc2ccccc2)c1=O
1.73% (inactive)

Sample O=c1cnc2cncnc2n1Cc1ccccc1 ; activity change, negative = inhibition observed: 0.677% (inactive)

Sample COc1cccc(-c2ccc3ncnc(NC4CCNCC4)c3c2)c1 ; activity change, negative = inhibition observed: 7.49% (inactive)

Sample COc1ncc2ncc(=O)n(C[C@H]3CCCO3)c2n1 ; activity change, negative = inhibition observed: 4.31% (inactive)

###

# subject.of.test: Glucocorticoid receptor (Homo sapiens) (UniProt P04150)
# Sequence (P04150 whole entry, looked up): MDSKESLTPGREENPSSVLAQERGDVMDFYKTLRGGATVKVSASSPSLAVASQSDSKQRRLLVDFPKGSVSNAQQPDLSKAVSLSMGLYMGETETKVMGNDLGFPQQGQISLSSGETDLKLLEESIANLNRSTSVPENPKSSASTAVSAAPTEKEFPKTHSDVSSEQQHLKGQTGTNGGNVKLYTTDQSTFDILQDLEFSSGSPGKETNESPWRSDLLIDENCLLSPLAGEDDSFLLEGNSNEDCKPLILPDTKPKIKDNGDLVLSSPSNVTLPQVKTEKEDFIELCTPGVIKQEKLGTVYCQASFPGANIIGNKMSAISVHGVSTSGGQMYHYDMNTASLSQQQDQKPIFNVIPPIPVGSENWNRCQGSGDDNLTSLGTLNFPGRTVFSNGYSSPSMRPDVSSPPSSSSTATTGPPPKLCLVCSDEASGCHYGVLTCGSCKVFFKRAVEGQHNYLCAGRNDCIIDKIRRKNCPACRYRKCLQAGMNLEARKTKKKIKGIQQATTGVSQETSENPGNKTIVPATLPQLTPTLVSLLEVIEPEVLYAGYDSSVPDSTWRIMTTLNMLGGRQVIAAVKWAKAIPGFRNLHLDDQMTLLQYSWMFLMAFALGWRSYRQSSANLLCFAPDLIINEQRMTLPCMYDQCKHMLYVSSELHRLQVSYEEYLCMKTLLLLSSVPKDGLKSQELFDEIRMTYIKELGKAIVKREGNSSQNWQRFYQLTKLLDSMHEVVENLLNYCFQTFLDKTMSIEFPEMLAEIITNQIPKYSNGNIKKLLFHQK
# protocol.description: GR-GFP Redistribution (AID 450); further: potency means the concentration at half of the fitted maximal effect
# measurement.context: U2OS GR-GFP nuclear translocation, laser cytometry, 2 h
Activity calls are given as the source filed them.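 The calls were made as follows: active = compounds whose dose series gives a full or clear partial fitted curve of increased nuclear translocation; inconclusive = weak partial curve or effect only at the top dose; inactive = no dose-dependent translocation response.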
quantity.kind: Potency

Past entries and their recorded results:
1) COc1cccc(Cn2c(=O)c(-c3ccc(F)cc3)nc3cnc(OC)nc32)c1
> 9.22 µM (inactive)
2) CS(=O)(=O)Nc1cccc(-c2ccc3ncnc(N4CCNCC4)c3c2)c1
> 46 µM (inactive)
3) COCCn1c(=O)c(-c2cccs2)nc2cnc(N(C)C)nc21
> 9.22 µM (inactive)
4) COc1cccc(Nc2ncc3nc(-c4ccc(Cl)cc4)c(=O)n(C4CC4)c3n2)c1
> 9.22 µM (inactive)
5) COCCn1c(=O)c(-c2cn(C)c3ccccc23)nc2cnc(N3CCNCC3)nc21
> 9.22 µM (inactive)
6) Cc1ccccc1-c1nc(N2CCNCC2)c2ccccc2n1
> 46 µM (inactive)
7) COc1ccccc1-c1nccc(NCc2cnc(C)cn2)n1
> 46 µM (inactive)
8) CN1CCN(c2nc(-c3ccccc3C(F)(F)F)nc3ccccc23)CC1
> 46 µM (inactive)

Glucocorticoid receptor (Homo sapiens) (UniProt P04150) assay, compound COc1cccc(Cn2c(=O)c(C)nc3cnc(N4CCN(C)CC4)nc32)c1 , recorded Potency = > 9.22 µM (inactive)

Glucocorticoid receptor (Homo sapiens) (UniProt P04150) assay, compound O=c1cnc2cnc(Nc3ccccc3)nc2n1Cc1ccc(F)cc1 , recorded Potency = > 9.22 µM (inactive)

Glucocorticoid receptor (Homo sapiens) (UniProt P04150) assay, compound O=c1c(-c2cccs2)nc2cnc(N3CCOCC3)nc2n1Cc1ccc(F)cc1 , recorded Potency = > 9.22 µM (inactive)

Glucocorticoid receptor (Homo sapiens) (UniProt P04150) assay, compound c1ccc2c(-n3ccnc3)nc(-c3ccoc3)nc2c1 , recorded Potency = > 46 µM (inactive)

Glucocorticoid receptor (Homo sapiens) (UniProt P04150) assay, compound N#Cc1ccccc1-c1ccc2ncnc(N3CCNCC3)c2c1 , recorded Potency = > 46 µM (inactive)

Glucocorticoid receptor (Homo sapiens) (UniProt P04150) assay, compound COCCNc1ncnc2ccc(-c3cccnc3)cc12 , recorded Potency = > 46 µM (inactive)
